- TGT: T1, CRBN, Q96SW2
- T1 chain: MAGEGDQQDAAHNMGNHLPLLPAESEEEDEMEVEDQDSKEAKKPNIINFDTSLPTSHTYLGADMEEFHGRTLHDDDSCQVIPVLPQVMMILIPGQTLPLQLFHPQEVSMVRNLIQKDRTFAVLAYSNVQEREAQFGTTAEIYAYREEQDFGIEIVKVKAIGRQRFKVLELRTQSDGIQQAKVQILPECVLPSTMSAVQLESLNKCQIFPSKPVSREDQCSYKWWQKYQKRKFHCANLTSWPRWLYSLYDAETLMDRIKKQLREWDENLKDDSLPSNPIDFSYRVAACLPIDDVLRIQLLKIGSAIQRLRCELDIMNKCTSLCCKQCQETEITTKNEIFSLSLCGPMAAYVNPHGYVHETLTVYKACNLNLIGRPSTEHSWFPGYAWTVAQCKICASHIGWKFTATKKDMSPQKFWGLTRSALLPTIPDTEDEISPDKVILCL
- TEST_NAME: log2 fold change of degron read counts, EGFP-low vs EGFP+ sorted cells (limma voom), compound-induced degradation; higher = more compound-induced degradation of the degron-EGFP fusion; degrons are variants of IKZF1/3 zinc finger 2; compound dose not given here;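 also: pooled lentiviral library of zinc finger degron-EGFP fusions in mCherry-positive Jurkat cells, FACS-sorted after compound exposure, with degron abundance counted by next-generation sequencing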
- MEASUREMENT_PARAMETERS: Jurkat; 18 h; compound: thalidomide
The full ranking holds about 8,300 sequences; the median of “log2 fold change of degron read counts, EGFP-low vs EGFP+ sorted cells (limma voom), compound-induced degradation” is about -1.1, and the highest 2% start at about 3.2. This is one part of a sample in which the highest values are shown more often than they occur.
# reported log2 fold change of degron read counts; entries follow

# count of solved cases: 3
{"columns": ["CHAIN", "log2 fold change of degron read counts"],
 "data": [
  ["LDCPICGFSCTQKGNLLRHIKL [46L_47D_49P_50I_52G_53F_54S_55C_67L_, Q9UKT9]", 2.17],
  ["LKCPICGFSCTQKGNLLRHIKL [46L_47K_49P_50I_52G_53F_54S_55C_67L_, Q9UKT9]", 1.64],
  ["LLCPICGFSCTQKGNLLRHIKL [46L_47L_49P_50I_52G_53F_54S_55C_67L_, Q9UKT9]", 2.5]
]}

IN: Entry LSCPICGFSCTQKGNLLRHIKL [46L_47S_49P_50I_52G_53F_54S_55C_67L_, Q9UKT9] needs its log2 fold change of degron read counts filled in; supply it.
OUT: 2.8
